# Tested on: SK-MEL-2 melanoma
# PROTOCOL: NCI-60 one-dose screen, 48 h
# CONDITION DETAILS: 10 µM unless noted
Compounds without any hit were thinned out: in the full panel of roughly 83,000, 20% have a hit. The source made the active and inactive calls. How the source made its calls: active means growth percent below 10; inactive means the rest.
Labels: true (1) = active, false (0) = inactive

COMPOUND: CN1CCN(C(=O)[C@]23CCC(C)(C)C[C@H]2C2=CC[C@@H]4[C@@]5(C)C/C(=C/c6ccncc6)C(=O)C(C)(C)[C@@H]5CC[C@@]4(C)[C@]2(C)CC3)CC1
CLASS NAME: false (0)
--
COMPOUND: O=C(C[n+]1cccc2ccccc21)c1ccc(O)c(O)c1
CLASS NAME: false (0)
--
COMPOUND: COC(=O)C(CC=O)C(=O)C(=O)Nc1cccc(C(F)(F)F)c1 (stereo not given)
CLASS NAME: false (0)
--
COMPOUND: COc1cc2c3c(c4c5ccccc5[nH]c4c2c(OC)c1OC)C(=O)N(CCN1CCOCC1)C3=O
CLASS NAME: false (0)
--
COMPOUND: C=C1C(=O)O[C@H]2[C@H]1CC/C(CNC(=O)/C=C/c1ccccc1)=C\CC[C@@]1(C)O[C@@H]21
CLASS NAME: false (0)
--
COMPOUND: CCN(CC)CCOc1ccc(NC(=O)C(C(C)C)N2C(=O)/C(=C/c3ccc(Br)cc3)SC2=S)cc1 (stereo not given)
CLASS NAME: false (0)
--
COMPOUND: COc1ccc(/C=C2\COc3ccc(-c4ccccc4)cc3C2=O)c(OC)c1
CLASS NAME: false (0)
--
COMPOUND: CCCCOc1ccc(/C(C)=N/Nc2cc(C)nc3ccc(Br)cc23)cc1
CLASS NAME: false (0)
--
COMPOUND: O=C(CCN1CCCC1)Nc1ccc2c(NCCc3ccccc3)c3ccccc3nc2c1
CLASS NAME: true (1)
--
COMPOUND: Cn1ccc2c1CC1CN(Cc3ccco3)C(=O)C1C2C(=O)O (stereo not given)
CLASS NAME: false (0)
--
COMPOUND: O=C(CCN1CCCC1)c1ccc([N+](=O)[O-])cc1
CLASS NAME: false (0)
--
COMPOUND: COc1cc(/C=C\c2cc(/C=C\c3ccc(O)c(OC)c3)n(C(=O)COc3ccccc3)n2)ccc1O
CLASS NAME: true (1)
--
COMPOUND: COC(=O)C(OC(C)=O)C(OC(C)=O)c1ccc(OC)c(OC)c1 (stereo not given)
CLASS NAME: false (0)
--
COMPOUND: COc1ccc(C(=O)Cn2c(C(=O)c3ccccc3)nc3ccccc32)cc1
CLASS NAME: false (0)
--
COMPOUND: Cc1nc(N)nc(N[C@@H](C)c2nc3cccc(NCc4ccc(C(=O)NO)cc4)c3c(=O)n2-c2ccccc2)n1
CLASS NAME: false (0)

Data provenance: PubChem BioAssay (NCI)
